Every entry's value here was drawn from PubChem BioAssay (NCATS).

assay: Cell Viability - LYMP2-005 (AID 967); conditions: LYMP2-005 lymphoblastoid cell viability; series mostly up to 92.2 µM;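 note: cells exposed to compound for 24 h at 37 °C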
Results filed as inconclusive are left out. The source made the active and inactive calls. Calls come from the whole dose curve; as a rule, active = well fitted cell-killing curve with a large enough effect; inconclusive = small, poorly fitted or top-dose-only effect, or effect the other way; inactive = no such curve, though single readings can be large or run the other way.
Respond using exactly one of the listed classes: yes = active, no = inactive

Worked examples follow.
compound: C#CCO
class_name: no

compound: O=C(O)C1C(C(=O)O)C2(Cl)C(Cl)=C(Cl)C1(Cl)C2(Cl)Cl (centres undefined)
class_name: no

compound: O=Nc1ccc(Nc2ccccc2)cc1
class_name: yes

compound: N#CSCSC#N
class_name: yes

Prompt: So what was the verdict on `CC(=O)[O-].CC(=O)[O-].O.O.[Cd+2]` in this test?
Response: yes

Prompt: State the result this test recorded for `O=[N+]([O-])c1cc(C(F)(F)F)cc([N+](=O)[O-])c1Cl` .
Response: no

Prompt: Field: outcome | Entry: `C(=NC1CCCCC1)=NC1CCCCC1`
Response: no

Prompt: Tell me the recorded outcome of this test for `Nc1ccc(-c2ccc(N)c(O)c2)cc1O` .
Response: yes

Prompt: // param item: `C=CC(=O)OCC(CO)(COC(=O)C=C)COC(=O)C=C` ; yields the recorded call
Response: yes

###

experiment: Cell Viability - LYMP2-010 (AID 981); details: LYMP2-010 lymphoblastoid cell viability, qHTS; series mostly up to 92.2 µM;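 note: cells exposed to compound for 24 hours at 37 °C; nearly all actives have a fitted effect of over 55% in size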
Records with an inconclusive call do not appear. The source made the active and inactive calls. Calls come from the whole dose curve; as a rule, active = well fitted cell-killing curve with a large enough effect; inconclusive = small, poorly fitted or top-dose-only effect; inactive = flat fitted curve, though single readings scatter.
Returns: one label drawn from yes (1) for active, no (0) for inactive

These solved cases illustrate the format of a correct answer.
compound: C=CC(=O)OCC(CO)(COC(=O)C=C)COC(=O)C=C
class_name: yes (1)
//
compound: CCCCCCCCn1sccc1=O
class_name: yes (1)
//
compound: Clc1ccc(C(c2ccc(Cl)cc2)C(Cl)Cl)cc1
class_name: no (0)

Prompt: Look up the recorded call for O=C(O)C1C(C(=O)O)C2(Cl)C(Cl)=C(Cl)C1(Cl)C2(Cl)Cl (centres undefined) in this test.
Response: no (0)

###

biological target: Bile acid receptor (Homo sapiens) (UniProt Q96RI1); assay: qHTS assay for small molecule agonists of farnesoid X receptor signaling (AID 588527); settings: HEK293T FXR-UAS-bla, beta-lactamase ratio, 16 h; hits give high values;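 note: 0% = vehicle basal and 100% = reference agonist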
Sequence (Q96RI1 whole entry, looked up): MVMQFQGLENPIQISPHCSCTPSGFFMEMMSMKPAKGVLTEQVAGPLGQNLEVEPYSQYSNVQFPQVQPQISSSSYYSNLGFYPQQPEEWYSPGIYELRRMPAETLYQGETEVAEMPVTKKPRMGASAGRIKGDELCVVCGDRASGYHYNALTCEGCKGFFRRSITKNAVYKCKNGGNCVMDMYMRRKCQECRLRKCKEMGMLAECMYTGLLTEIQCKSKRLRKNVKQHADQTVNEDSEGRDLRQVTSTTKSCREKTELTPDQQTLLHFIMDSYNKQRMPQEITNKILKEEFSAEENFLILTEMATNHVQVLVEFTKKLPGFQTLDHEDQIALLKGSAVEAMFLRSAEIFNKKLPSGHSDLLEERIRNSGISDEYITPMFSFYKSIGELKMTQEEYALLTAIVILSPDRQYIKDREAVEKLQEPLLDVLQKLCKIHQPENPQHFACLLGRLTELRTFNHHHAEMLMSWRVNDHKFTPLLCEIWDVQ
Records with an inconclusive call do not appear.
Record form. Attribute: activation. Fill in for each entry.
Answers are plain numbers, in %.

// solved cases for activation follow
compound: CCc1c(C(=O)O)c(=O)cnn1-c1ccc(Cl)cc1
activation (%): 1.28

compound: Cc1ccccc1C#N
activation (%): -0.262

Field: activation. Fill in for each record below.
1. CCC(C)O (configuration not stated)
2. CCOP(=O)(OCC)Oc1ccc2c(C)c(Cl)c(=O)oc2c1
3. CCOCCOCCOC(C)=O
4. Cc1ccc(C(=O)O)cc1
5. BrC/C=C/CBr
6. ClC(Cl)Cl
7. OCc1cccc(Oc2ccccc2)c1

Response:
1. 0.0237
2. 2.16
3. -3.45
4. -1.14
5. 1.2
6. 0.676
7. -0.998

###

For each of the compounds below, state its max response.
assay: qHTS assay for cell viability of HEK293 cells (AID 743288); settings: ATP luminescence (CellTiter-Glo), 18 h; hits give low values; note: % is set by controls: 0 for no effect and ±100 for the full control effect; nearly all actives have a fitted effect of over 50% in size
Records with an inconclusive call do not appear.
Give bare numbers, in %.

compound: Cc1ccccc1CO[C@@H]1C[C@@]2(C(C)C)CC[C@]1(C)O2
max response [%]: -20.5
--
compound: Cn1c(-c2ccccc2)cc(-c2ccccc2)[n+]1C
max response [%]: 5.36
--
compound: CN(C)c1ccc(C(=O)c2ccc(N(C)C)cc2)cc1
max response [%]: -23.3

Go through the items and report each one's max response.
1. CCNS(=O)(=O)C(F)(F)C(F)(F)C(F)(F)C(F)(F)C(F)(F)C(F)(F)C(F)(F)C(F)(F)F
2. CCCCC(CC)CO[N+](=O)[O-] (centres undefined)
3. Cc1ccn2nc(S(=O)(=O)Nc3c(F)cccc3F)nc2n1
4. COc1cc(OC)nc(NC(=O)NS(=O)(=O)c2ncccc2C(F)(F)F)n1

Response:
1: -20.2; 2: 3.43; 3: -3.63; 4: -6.81

Your task in this section: give max response for each listed record.
1. CC(C)Oc1cc(-n2nc(C(C)(C)C)oc2=O)c(Cl)cc1Cl
2. O=C(NC(=O)c1c(F)cccc1F)Nc1cc(Cl)c(OC(F)(F)C(F)F)c(Cl)c1
3. CC(C)NC(=O)N1CC(=O)N(c2cc(Cl)cc(Cl)c2)C1=O
4. Clc1ccc([C@@]2(Cn3cncn3)C[C@@H](Br)CO2)c(Cl)c1

Response:
1. -26.7
2. -28.3
3. -6.95
4. -20.7

Would you be so kind as to report max response for each listed record?
1. CCNc1nc(NC(C)(C)C)nc(SC)n1
2. CCC(C)(NC(=O)c1cc(Cl)c(C)c(Cl)c1)C(=O)CCl (centres undefined)
3. O=P(O)(O)CN(CP(=O)(O)O)CP(=O)(O)O
4. CO/N=C(/C(=O)OC)c1ccccc1COc1ccccc1C
5. CC(C)N1C(=O)N(c2ccccc2)CSC1=NC(C)(C)C
6. CCOP(=S)(OCC)Oc1ccc(S(C)=O)cc1 (centres undefined)

Response:
1: -12.7; 2: -19.8; 3: -8.91; 4: -26.1; 5: -17.9; 6: -11.8

Hey, quick one: what's max response for each of these?
1. CCOC(=O)COc1cc(-c2nn(C)c(OC(F)F)c2Cl)c(F)cc1Cl
2. O=C(NC(=O)c1c(F)cccc1F)Nc1ccc(OC(F)(F)C(F)OC(F)(F)F)c(Cl)c1 (centres undefined)
3. CCOc1nc(NC)nc(NC(=O)NS(=O)(=O)c2ccccc2C(=O)OC)n1
4. CCCCOCN(C(=O)CCl)c1c(CC)cccc1CC
5. Cn1cc(-c2ccccc2)c(=O)c(-c2cccc(C(F)(F)F)c2)c1

Response:
-5.44
-16.7
9.14
-23.1
-5.04

Return reported max response values for all items listed beneath this line.
1. COP(=O)(OC)Oc1nc(Cl)c(Cl)cc1Cl
2. CCOP(OCC)OCC

Response:
1. -6.19
2. 0.538
